The reader will find reported CC50 at 20 h values listed item by item below.
Assay: Cytotoxicity against HEK293 cells reduction in cell viability after 20 hrs by resazurin dye based fluorescence assay
Conditions: human

given-smiles: CC(C)CCc1sc(NC(=O)c2cc(NC(=O)c3cc(NC(=N)c4ccc(F)cc4)cn3C)cn2C)nc1C(=O)NCCCN(C)C
result-operator: =
CC50 at 20 h (µg/mL): 18
//
given-smiles: COc1cccc(C(=N)Nc2cc(C(=O)Nc3cc(C(=O)Nc4nc(C(=O)NCCCN(C)C)c(CCC(C)C)s4)n(C)c3)n(C)c2)c1
result-operator: >
CC50 at 20 h (µg/mL): 32
//
given-smiles: CC(C)CCc1sc(NC(=O)c2cc(NC(=O)c3cc(NC(=N)c4cnc5ccccc5c4)cn3C)cn2C)nc1C(=O)NCCCN(C)C
result-operator: =
CC50 at 20 h (µg/mL): 1.2
//
given-smiles: CC(C)CCn1cc(NC(=O)c2cc(NC(=O)c3cc(NC(=N)c4cnc5ccccc5c4)cn3C)cn2C)cc1C(=O)NCCCN(C)C
result-operator: =
CC50 at 20 h (µg/mL): 12
//
given-smiles: CN(C)CCCNC(=O)c1cc(NC(=O)c2cc(NC(=O)c3cc(NC(=N)c4cnc5ccccc5c4)cn3C)cn2C)cn1C
result-operator: >
CC50 at 20 h (µg/mL): 32

###

System: Salmon testes DNA
Experiment: Binding affinity to wild type salmon sperm DNA assessed as change in melting temperature at 10 uM
Type: nucleic-acid assay
Details: Salmonidae
The compounds listed here are annotated with their ΔTm.

given-smiles: CC(C)CCn1cc(NC(=O)c2cc(NC(=O)c3cc(NC(=N)N)cn3C)cn2C)cc1C(=O)NCCCN(C)C
unit-name: °C
ΔTm: 4
//
given-smiles: CC(C)CCn1cc(NC(=O)c2cc(NC(=O)c3cc(NC(=N)c4cnc5ccccc5c4)cn3C)cn2C)cc1C(=O)NCCCN(C)C
unit-name: °C
ΔTm: 17
//
given-smiles: CC(=O)Nc1cc(C(=O)Nc2cc(C(=O)Nc3nc(C(=O)NCCCN(C)C)c(CCC(C)C)s3)n(C)c2)n(C)c1
unit-name: °C
ΔTm: 4
//
given-smiles: CC(C)CCc1sc(NC(=O)c2cc(NC(=O)c3cc(NC(=N)N)cn3C)cn2C)nc1C(=O)NCCCN(C)C
unit-name: °C
ΔTm: 4
